Origin of measurements: PubChem BioAssay

Each entry below carries its recorded log fold change Tl+ flux.
Tested on: R275C/beta2Delta
experiment.description: modulators of BK channel variants, profiling panel, selectivity assay, cell-based, U2OS BacMam, thallium flux, beta subunits (AID 1259406);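 note: initial slope of Thallos dye fluorescence rise after thallium is added; log ratio against the mean of 0.3% DMSO vehicle wells on the same plate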
condition.context: at 30 µM
Please state the value as a number alone, without comment.

Some entries whose results are on file:
{"smiles.repr": "Clc1ccc(CON=C(Cn2ccnc2)c2ccc(Cl)cc2Cl)c(Cl)c1", "log fold change Tl+ flux": -0.0303}
{"smiles.repr": "COc1ccc2[nH]cc(C3=CCNCC3)c2c1", "log fold change Tl+ flux": 0.0216}

Item: `NC(=O)OCCCc1ccccc1` | log fold change Tl+ flux: 0.00928

# log fold change Tl+ flux (molecule: `C[N+]1(CCC(C(N)=O)(c2ccccc2)c2ccccc2)CCCCC1` ) is -0.0181

Lab book: log fold change Tl+ flux of `CN=C1CN(O)C(c2ccccc2)=c2cc(Cl)ccc2=N1` noted as 0.0426

====

experiment.description: sensitizers of A549 cells to miR-34 induction, primary screen, imaging, A549 dox-inducible miR-34, nuclei and caspase counts (AID 1347080)
condition.context: A549 miR-34 inducible, Hoechst nuclei count, 48 h; stronger effect = lower value; cell number ratio, induced over uninduced
fold change by entry:
// no unit string in output, number only

{"compound": "CC[N+](CC)(CCCNC1=CC(=O)C(NCCC[N+](CC)(CC)Cc2ccccc2)=CC1=O)Cc1ccccc1", "obs.value": 0.951}
{"compound": "c1ccc(CCCCN2CCC(c3ccccc3)CC2)cc1", "obs.value": 0.976}
{"compound": "CNCCCCCCN(C)N(O)N=O", "obs.value": 0.998}
{"compound": "CN1C2CCC1CC(OC(c1ccccc1)c1ccc(Cl)cc1)C2 (configuration not stated)", "obs.value": 0.909}
{"compound": "CCCCC/C=C\\C/C=C\\C/C=C\\C/C=C\\CCCC(=O)Nc1cccc(O)c1", "obs.value": 0.942}

The reported fold change of the compound CC=C(C)C(=O)NC(c1ccccc1)C(O)C(=O)OC1C[C@@]2(O)C(OC(=O)c3ccccc3)[C@@H]3[C@]4(OC(C)=O)COC4CC(O)[C@@]3(C)C(=O)C(OC(C)=O)C(=C1C)C2(C)C (some centres not stated) was 1.27

Value of fold change reported for the compound CCCN(C/C=C/I)C1CCc2ccc(O)cc2C1 (configuration not stated) is 0.904

====

experiment.description: sensitizers of A549 cells to miR-34 induction, primary screen, imaging, A549 dox-inducible miR-34, nuclei and caspase counts (AID 1347080)
condition.context: A549 miR-34 inducible, Hoechst nuclei count, 48 h; measured here: total cells without miR-34 induction
Binarize cell count at 10000; below is T, at or above is F.

Previously resolved entries follow.
{"molecule": "O1[As]2O[As]3O[As]1O[As](O2)O3", "group": "F"}
{"molecule": "CN1C(=O)CN=C(c2ccccc2)c2cc([N+](=O)[O-])ccc21", "group": "T"}
{"molecule": "O=C(O)Cc1cnc[nH]1", "group": "F"}

Query :: I wonder whether `O=S1(=O)N(CCN2CC=C(c3c[nH]c4cc(F)ccc34)CC2)c2cccc3c2N1CCC3` has cell count below 10000. Can you tell?
Result :: T

Query :: Determine if `O=C1OCCN1N=Cc1ccc([N+](=O)[O-])o1` shows cell count strictly lower than 10000.
Result :: T

Query :: Does the reported cell count of the following molecule sit strictly below 10000? `COc1cccc2c1cc([N+](=O)[O-])c1c(C(=O)O)cc3c(c12)OCO3`
Result :: T

Query :: # strict comparison: is reported cell count < 10000? input = `NC(=O)OCCCc1ccccc1`
Result :: F

Query :: # strict comparison: is reported cell count < 10000? input = CN1[C@@H]2CC[C@H]1CC(OC(=O)N1Cc3ccccc3NC1=O)C2 (stereo partly specified)
Result :: T

Query :: API: query returns whether the molecule falls strictly under 10000 in cell count. Query: COc1ccc(CC2c3cc(OC)c(OC)cc3CCN2C)cc1OC (stereo unspecified)
Result :: F

Query :: Would you kindly verify if cell count of `CCCCC/C=C\C/C=C\C/C=C\C/C=C\CCCCOC(CO)CO` is strictly less than 10000?
Result :: T

Query :: API: query returns whether the molecule falls strictly under 10000 in cell count. Query: CCCCC/C=C\C/C=C\C/C=C\C/C=C\CCC(C)C(=O)NCCF (stereo unspecified)
Result :: T

Query :: Decide: cell count of `CC(=O)[C@H]1CC[C@H]2[C@@H]3CC[C@H]4C[C@](C)(O)CC[C@]4(C)[C@H]3CC[C@]12C` strictly below 10000?
Result :: F

Query :: Problem: For the molecule C[C@H]1CN(C2CCC(C#N)(c3ccc(F)cc3)CC2)CC[C@@]1(C(=O)O)c1ccccc1 (stereo partly specified) , is cell count under 10000?
Result :: F

Query :: Would you kindly verify if cell count of `Cn1cc(C2=C(c3cn(C4CCN(Cc5ccccn5)CC4)c4ccccc34)C(=O)NC2=O)c2ccccc21` is strictly less than 10000?
Result :: T

Query :: Does `C[C@@]1(CO)[C@H](O)CC[C@@]2(C)[C@H]1CC[C@H]1C[C@@H]3C[C@@]12CC[C@]3(O)CO` have cell count strictly under 10000?
Result :: T

Query :: Strictly below 10000: is that where cell count of O=c1[nH]c2ccc(Cl)cc2c(NC2CN3CCC2CC3)c1-c1nc2ccccc2[nH]1 (stereo unspecified) sits?
Result :: T

Query :: Regarding `C[C@H]1C(=O)O[C@@H]2CCN3CC=C(COC(=O)[C@](C)(O)[C@]1(C)O)[C@H]23` , kindly confirm whether its cell count is beneath 10000.
Result :: F

====

experiment.description: growth inhibition of GSK3B-pretreated HCT116 cells – cell-based, CellTiter-Glo, 0.2 to 20 µM (AID 1117336)
condition.context: HCT116 viability after GSK3B inhibitor, at 20 µM
Calls of active or inactive are those of the source.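 The calls were made as follows: active = compounds lowering colon cancer cell viability after pretreatment blocking the GSK3B kinase; inactive = the rest.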
Reply using exactly one outcome from active, inactive

Consider the following illustrative entries.
{"molecule": "O=C(CCCN1CCC(n2c(=O)[nH]c3ccccc32)CC1)c1ccc(F)cc1", "group": "inactive"}
{"molecule": "COC[C@@H](NC(C)=O)C(=O)NCc1ccccc1", "group": "inactive"}
{"molecule": "CN1C(=S)CN=C(c2ccccc2)c2cc(Cl)ccc21", "group": "active"}
{"molecule": "O=[N+]([O-])/N=C1\\NCCN1Cc1ccc(Cl)nc1", "group": "inactive"}
{"molecule": "C[C@]12C[C@@H]3S[C@H]3C[C@@H]1CC[C@H]1[C@H]3CC[C@@H](O)[C@@]3(C)CC[C@@H]12", "group": "inactive"}

Query :: Hi team, can someone confirm the assay call for `CN1C(=O)CN=C(c2ccccc2)c2cc([N+](=O)[O-])ccc21` ?
Result :: inactive

Query :: // return assay outcome for `COc1ccc(CN2CCNCC2)c(OC)c1OC`
Result :: inactive

Query :: Hello, I am checking results. What call was entered for `CN(C)[C@@H]1C(=O)C(C(N)=O)=C(O)[C@@]2(O)C(=O)C3=C(O)c4c(O)cccc4[C@@](C)(O)[C@H]3C[C@@H]12` ?
Result :: inactive

Query :: // outcome(item) with item = CC(C)c1c(CN(C)C(C)Cc2ccccc2)n(C)n(-c2ccccc2)c1=O (stereo not given)
Result :: inactive

Query :: Hey, what did the test say about `O=c1[nH]c2ccccc2n1CCCN1CCC(n2c(=O)[nH]c3cc(Cl)ccc32)CC1` ?
Result :: inactive

====

experiment.description: differential killing of epithelial or mesenchymal cells, primary screen, imaging, PC-3E GFP, TEM4-18 mCherry, co-culture (AID 1345086);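 note: cells exposed to compound for 72 h before imaging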
condition.context: imaging cell counts, measured here: mesenchymal TEM4-18 mCherry cell survival, at 1 µM
measured.endpoint: normalised cell number
// response body must contain only the number

Worked cases, answers included:
{"compound": "Oc1ccc2c3c1OC1[C@@H](O)CC[C@@]4(O)[C@@H](C2)N(CC2CCC2)CC[C@]314 (some centres not stated)", "normalised cell number": 0.97}
{"compound": "CN1CCCCC1c1ccc(-c2cccnc2)nc1 (configuration not stated)", "normalised cell number": 1.04}
{"compound": "CC(O)CN1CCN(CC(=O)[O-])CCN(CC(=O)[O-])CCN(CC(=O)[O-])CC1.[Gd+3] (configuration not stated)", "normalised cell number": 1.14}

Item: CCC(C)[C@H]1O[C@]2(C=C[C@@H]1C)C[C@@H]1C[C@@H](C/C=C(\C)[C@@H](OC3C[C@H](OC)C(O[C@H]4C[C@H](OC)[C@@H](O)[C@H](C)O4)[C@H](C)O3)[C@@H](C)/C=C/C=C3\COC4[C@H](O)C(C)=C[C@@H](C(=O)O1)[C@]34O)O2 (some centres not stated) | normalised cell number: 0.6

Entry `c1ccc2c(c1)Nc1ccccc1S2` — recorded normalised cell number = 0.78

The recorded normalised cell number for entry `COP(=S)(OC)Oc1ccc(Sc2ccc(OP(=S)(OC)OC)cc2)cc1` equals 0.98

Record `C[C@H]1C(=O)O[C@@H]2CCN3CC=C(COC(=O)[C@](C)(O)[C@]1(C)O)[C@H]23` . Reported normalised cell number: 1.05

Entry under test: C[N+]12CC[C@@]34c5ccccc5N5C(=O)CC6OCC=C(C1)[C@@H](CC32)[C@@H]6C54 (some centres not stated) . Its normalised cell number was 1.01

Documented normalised cell number of `CN1CC[C@@]2(C)c3cc(O)ccc3N(C)[C@@H]12` : 1.05

// recorded normalised cell number for CCC(C)C(=O)O[C@@H]1C[C@@]2(C)[C@H](c3ccoc3)OC(=O)CC23OC2(C)O[C@]14C1(C)[C@@H](CC(=O)OC)C5(C)CC1(O)[C@](O)(C5OC(=O)C1(C)OC1C)[C@@H](OC(C)=O)[C@]34O2 (some centres not stated) : 1.16

The value of normalised cell number measured for the compound `C[CH2][Hg+].O=C([O-])c1ccccc1[S-].[Na+]` turned out to be 0.06
